target: GDP-bound KRAS wild-type protein (Homo sapiens); assay: Binding to KRAS by surface plasmon resonance (SPR), Single Cycle Kinetics; conditions: SPR Single Cycle Kinetics, GDP-bound KRAS wild-type protein, 1:1 binding model; read-out: KRAS KD
Sequence (P01116 whole entry): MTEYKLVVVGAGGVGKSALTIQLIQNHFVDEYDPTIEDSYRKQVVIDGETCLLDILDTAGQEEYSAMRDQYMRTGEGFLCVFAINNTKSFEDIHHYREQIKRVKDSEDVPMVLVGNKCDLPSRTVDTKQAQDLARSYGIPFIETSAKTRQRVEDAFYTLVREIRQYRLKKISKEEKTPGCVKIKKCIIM
*1 amine or outer side, *2 acyl side, *3 side chain or, on linkers, in order; H or OH if unused. Where a SMILES comes first, the peptide text is derived from it. Bridges are numbered along the chain shown (N, C = ends). [ ]: non-standard residue; d: D form. The star is where a group is joined. hPhe(3,5-F2-4-CF3) = N[C@@H](CCc1cc(F)c(C(F)(F)F)c(F)c1)C(=O)O; hPhe(3-Cl-4-CF3) = N[C@@H](CCc1ccc(C(F)(F)F)c(Cl)c1)C(=O)O; NPrPhe(4-CF3) = CCCN[C@@H](Cc1ccc(C(F)(F)F)cc1)C(=O)O; X15 = Cc1ccc(C[C@@H](C(=O)[*:2])N(CCC(C)C)[*:1])cc1; NMeGly(cPent) = CN[C@H](C(=O)O)C1CCCC1; Pro(4,4-F2) = O=C(O)[C@@H]1CC(F)(F)CN1; NMeD = CN[C@@H](CC(=O)O)C(=O)O; NMeL = CN[C@@H](CC(C)C)C(=O)O; αMeL = CC(C)C[C@](C)(N)C(=O)O; Morpholide = C1CN(*)CCO1; NMeA = CN[C@@H](C)C(=O)O; Ac5c = NC1(C(=O)O)CCCC1; Aze = O=C(O)[C@@H]1CCN1; Sar = CNCC(=O)O
reported property: Kd (nM)
// note: answer is a bare numeric in nM

>>> readout_number("CCC(CC)[C@H]1C(=O)N(C)[C@H](C(=O)N(C)C)CC(=O)N(C)[C@H]2CCC/C=C/c3ccc(cc3)C[C@@H](C(=O)N(C)CC(=O)N[C@@H](CCc3ccc(Cl)c(Cl)c3)C(=O)N3CCC[C@H]3C(=O)NC3(CC(C)(C)C3)C(=O)N1C)N1CC/C=C\\C[C@@H](C1=O)N(C)C(=O)CN(C)C(=O)[C@H]([C@@H](C)CC)NC2=O")
0.44
>>> readout_number("CCC[C@H]1C(=O)N[C@@H]([C@@H](C)CC)C(=O)N(C2CC2)CC(=O)N(C)[C@H]2C/C=C\\CCN(C2=O)[C@@H](Cc2ccc(C)cc2)C(=O)N(C)CC(=O)N[C@@H](CCc2ccc(Cl)c(Cl)c2)C(=O)N2C[C@H](OCC)C[C@H]2C(=O)NC2(CC(C)(C)C2)C(=O)N(C)[C@@H](C2CCCC2)C(=O)N(C)[C@H](C(=O)N(C)C)CC(=O)N1C")
0.91
>>> readout_number("CCCN1C(=O)[C@@H]2CCN2C(=O)CN(C)C(=O)[C@H]([C@@H](C)CC)NC(=O)[C@H](CC(C)C)N(C)C(=O)C[C@@H](C(=O)N2CCOCC2)N(C)C(=O)[C@H](C2CCCC2)N(C)C(=O)[C@](C)(CC(C)C)NC(=O)[C@@H]2CCCN2C(=O)[C@H](CCc2cc(F)c(C(F)(F)F)c(F)c2)NC(=O)CN(C)C(=O)[C@@H]1Cc1ccc(C(F)(F)F)cc1 [PP0795] ([NMeL]I[Sar][Aze][NPrPhe(4-CF3)][Sar][hPhe(3,5-F2-4-CF3)]P[αMeL][NMeGly(cPent)][NMeD]-Morpholide; lactam N-11)")
2.5
>>> readout_number("CC[C@H](C)[C@@H]1NC(=O)[C@H](CC2CC2)N(C)C(=O)C[C@@H](C(=O)N(C)C)N(C)C(=O)[C@H](C2CCCC2)N(C)C(=O)C2(CC(C)(C)C2)NC(=O)[C@@H]2C[C@@H](F)CN2C(=O)[C@H](CCc2cc(F)c(C(F)(F)F)c(F)c2)NC(=O)CN(C)C(=O)[C@H](Cc2ccc(C)cc2)N2CC/C=C\\C[C@@H](C2=O)N(C)C(=O)CN(C)C1=O")
0.033
>>> readout_number("CC[C@H](C)[C@@H]1NC(=O)[C@H](CC(C)C)N(C)C(=O)C[C@@H](C(=O)N2CCOCC2)NC(=O)[C@H](C2CCCC2)N(C)C(=O)C2(CCCC2)NC(=O)[C@@H]2CCCN2C(=O)[C@H](CCc2cc(F)c(C(F)(F)F)c(F)c2)NC(=O)CN(C)C(=O)[C@H](Cc2ccc(C(F)(F)F)cc2)N2CCCCC[C@@H](C2=O)N(C)C(=O)CN(C)C1=O")
29

INPUT: Given the molecule CCC[C@H]1C(=O)N[C@@H]([C@@H](C)CC)C(=O)N(C2CC2)CC(=O)N(C)[C@H]2C/C=C\CCN(C2=O)[C@@H](Cc2ccc(C)cc2)C(=O)N(C)CC(=O)N[C@@H](CCc2ccc(C(F)(F)F)c(OC)c2)C(=O)N2C[C@H](OCC)C[C@H]2C(=O)NC2(CC(C)(C)C2)C(=O)N(C)[C@@H](CC(C)(C)C)C(=O)N(C)[C@H](C(=O)N(C)C)CC(=O)N1C , what is its reported Kd?
OUTPUT: 0.4

INPUT: Moving on to the next molecule: CCO[C@@H]1C[C@H]2C(=O)NC3(CCC3)C(=O)N(C)[C@@H](C3CCCC3)C(=O)N(C)[C@H](C(=O)N(C)C)CC(=O)N(C)[C@@H](Cc3cccnc3)C(=O)N[C@@H]([C@@H](C)CC)C(=O)N(C)CC(=O)N(C)[C@H]3CCCCN(C3=O)[C@@H](Cc3ccc(C(F)(F)F)cc3)C(=O)N(C)CC(=O)N[C@@H](CCc3cc(F)c(C(F)(F)F)c(F)c3)C(=O)N2C1
OUTPUT: 0.013

INPUT: Now give it for CC[C@H](C)[C@@H]1NC(=O)[C@H](CC(C)C)N(C)C(=O)C[C@@H](C(=O)N2CCOCC2)N(C)C(=O)[C@H](C2CCCC2)N(C)C(=O)C2(CCCC2)NC(=O)[C@@H]2CCCN2C(=O)[C@H](CCc2ccc(C(F)(F)F)c(Cl)c2)NC(=O)CN(C)C(=O)[C@H](Cc2ccc(C)cc2)N(CCC(C)C)C(=O)[C@@H]2CCN2C(=O)[C@H](C)N(C)C1=O [PP0086] ([NMeL]I[NMeA][Aze][X15][Sar][hPhe(3-Cl-4-CF3)]P[Ac5c][NMeGly(cPent)][NMeD]-Morpholide; lactam N-11) too.
OUTPUT: 0.26

INPUT: Try the molecule CCCN1C(=O)CN(C)C(=O)CN(C)C(=O)[C@H]([C@@H](C)CC)NC(=O)[C@H](CC(C)C)N(C)C(=O)C[C@@H](C(=O)N(C)C)N(C)C(=O)[C@H](C2CCCC2)N(C)C(=O)C2(CCCC2)NC(=O)[C@@H]2CC(F)(F)CN2C(=O)[C@H](CCc2ccc(C(F)(F)F)c(Cl)c2)NC(=O)CN(C)C(=O)[C@@H]1Cc1ccc(C(F)(F)F)cc1 [PP0413] ([NMeL]I[Sar][Sar][NPrPhe(4-CF3)][Sar][hPhe(3-Cl-4-CF3)][Pro(4,4-F2)][Ac5c][NMeGly(cPent)][NMeD]-NMe2; lactam N-11)
OUTPUT: 0.049

INPUT: Follow-up item: CCO[C@@H]1C[C@H]2C(=O)NC3(CC(C)(C)C3)C(=O)N(C)[C@@H](C3CCCC3)C(=O)N(C)[C@H](C(=O)N(C)CC)CC(=O)N(C)[C@@H](COC)C(=O)N[C@@H]([C@@H](C)CC)C(=O)N(C)CC(=O)N(C)[C@H]3C/C=C\CCN(C3=O)[C@@H](Cc3ccc(C(F)(F)F)cc3)C(=O)N(C)CC(=O)N[C@@H](CCc3ccc(Cl)c(Cl)c3)C(=O)N2C1
OUTPUT: 0.19
